- assay_text: Solubility screen for Form A in organic solvents
- Type: physicochemical
- applied_conditions: organic solvent or mixture, thermodynamic from solid, Methyl acetate; read-out: Solubility
assay_metric: solubility

>>> print(df.to_string())
                                   compound  result_value
0  CS(=O)(=O)c1ccc(Oc2cc(F)cc(C#N)c2)c2c1[C@H](O)C(F)(F)C2 [Form A]   > 200 mg/mL

----------
- assay_text: Solubility screen for Form A in organic solvents
- Format: physicochemical
- applied_conditions: organic solvent or mixture, thermodynamic from solid, Tetrahydrofuran; read-out: Solubility
assay_metric: solubility

>>> df
                                   compound  assay_metric  result_value
0  CS(=O)(=O)c1ccc(Oc2cc(F)cc(C#N)c2)c2c1[C@H](O)C(F)(F)C2 [Form A]    solubility   > 200 mg/mL

----------
- assay_text: Solubility screen for Form A in organic solvents
- Type: physicochemical
- applied_conditions: organic solvent or mixture, thermodynamic from solid, Acetone: Water (5%); read-out: Solubility
- Description: A solubility screen for Form A was conducted in 24 solvents. About 5 mg of Form A was placed in each of 24 vials and 5 volume aliquots of the appropriate solvent systems listed in Table 1 were added to the appropriate vial. Between each addition, the mixture was checked for dissolution by visual inspection, and if no dissolution was apparent, the mixture was heated to ca. 40° C. and checked again. […]
assay_metric: solubility

>>> df
                                   compound  result_value
0  CS(=O)(=O)c1ccc(Oc2cc(F)cc(C#N)c2)c2c1[C@H](O)C(F)(F)C2 [Form A]   > 200 mg/mL

----------
- assay_text: Aqueous solubility (24 h mixing, filtrate by HPLC)
- Format: physicochemical
- applied_conditions: fassif, thermodynamic from solid, Fasted State Simulated Small Intestinal Fluid, read-out: Aqueous Solubility FaSSIF
assay_metric: solubility at 24 h

In [3]: df
Out[3]:
                                   compound        assay_metric  result_value
0  CS(=O)(=O)c1ccc(Oc2cc(F)cc(C#N)c2)c2c1[C@H](O)C(F)(F)C2 [Form A]  solubility at 24 h      63 µg/mL

----------
- assay_text: Aqueous solubility (24 h mixing, filtrate by HPLC)
- Format: physicochemical
- applied_conditions: pH 7.4, aqueous buffer, thermodynamic from solid, pH 7.4, read-out: Aqueous Solubility pH 7.4
assay_metric: solubility at 24 h (µg/mL)

                                   compound        assay_metric  result_value
0  CS(=O)(=O)c1ccc(Oc2cc(F)cc(C#N)c2)c2c1[C@H](O)C(F)(F)C2 [Form A]  solubility at 24 h            26
